From: PubChem BioAssay AID1851

Measured On: Cytochrome P450 2C19 (Homo sapiens) (UniProt P33261)
Sequence (P33261 whole entry, looked up): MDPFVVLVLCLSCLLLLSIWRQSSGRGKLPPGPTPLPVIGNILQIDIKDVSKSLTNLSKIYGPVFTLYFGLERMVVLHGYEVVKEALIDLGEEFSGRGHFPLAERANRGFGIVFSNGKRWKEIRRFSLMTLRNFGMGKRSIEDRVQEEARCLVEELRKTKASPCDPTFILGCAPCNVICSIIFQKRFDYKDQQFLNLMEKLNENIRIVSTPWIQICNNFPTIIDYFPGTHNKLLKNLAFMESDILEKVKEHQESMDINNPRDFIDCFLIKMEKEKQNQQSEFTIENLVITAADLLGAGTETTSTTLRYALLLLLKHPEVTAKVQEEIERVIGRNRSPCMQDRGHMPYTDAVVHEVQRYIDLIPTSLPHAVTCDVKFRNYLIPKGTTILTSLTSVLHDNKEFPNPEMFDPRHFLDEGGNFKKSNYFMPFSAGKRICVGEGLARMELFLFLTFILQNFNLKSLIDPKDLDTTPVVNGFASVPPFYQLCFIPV
Protocol: Cytochrome panel assay with activity outcomes
Settings: recombinant CYP, pro-luciferin dealkylation, luminescence, p450-cyp2c19; series mostly up to 57.1 µM
Among all 16,000 compounds or so, about 5,800 (36%) were called active. Inconclusive results (about 23%) are left out. The call rests on the fitted dose curve; in most records, active means well fitted curve in the direction sought with a large enough effect; inconclusive means small, poorly fitted or top-dose-only effect, or effect the other way; inactive means no such curve, though single readings can be large or run the other way. The list shows a part of the results.
Reply using exactly one outcome from active, inactive

# example entries with known answers
# outcome recorded in this test, key = CC(NCc1ccc(Cl)cc1)C(O)c1ccccc1 (stereo not given)
active

# outcome recorded in this test, key = COc1ccc(-n2nc(C(F)(F)F)cc2-c2ccc(Cl)cc2)cc1
active

# outcome recorded in this test, key = CC(=O)OCC1=C(C(=O)[O-])N2C(=O)[C@@H](NC(=O)CCC[C@@H](N)C(=O)[O-])[C@@H]2SC1.[Zn+2]
inactive

# outcome recorded in this test, key = CCOC(=O)C1Cc2c([nH]c3ccccc23)CN1 (stereo not given)
active

# outcome recorded in this test, key = C[C@@H]1O[C@H](O[C@H]2C[C@@H](O)[C@@]3(CO)[C@H]4[C@@H](O)C[C@]5(C)[C@@H](C6=CC(=O)OC6)CC[C@]5(O)[C@H]4CC[C@]3(O)C2)[C@@H](O)[C@H](O)[C@@H]1O
inactive

---
# outcome recorded in this test, key = COc1ccc(C(=O)OC2C[C@H]3CC[C@@H](C2)N3C)cc1OC (stereo not given in full)
inactive

# outcome recorded in this test, key = CC(=O)OCC1=C(C(=O)O)N2C(=O)[C@@H](N)[C@@H]2SC1
inactive

# outcome recorded in this test, key = COc1ccc2[nH]c3c(c2c1)CCNC3
inactive

# outcome recorded in this test, key = C[N+]12CCC(CC1)[C@@H](OC(=O)C(O)(c1ccccc1)c1ccccc1)C2
inactive

# outcome recorded in this test, key = N[C@H](C(=O)O)c1cc(=O)[nH]o1
inactive

# outcome recorded in this test, key = c1csc(CN2CC[C@@]3(CCCNC3)C2)n1
inactive

# outcome recorded in this test, key = CCCN(CCC)[C@@H]1CCc2ccc(O)cc2C1
inactive

# outcome recorded in this test, key = CCN1C[C@@]2(COC)CC[C@H](O)[C@@]34[C@@H]2C[C@@H]([C@@H]13)[C@]1(O)C[C@@H](OC)C2C[C@H]4[C@H]1[C@H]2OC(C)=O
inactive

# outcome recorded in this test, key = COc1cc(C[C@H](C)N)c(OC)cc1I
inactive

# outcome recorded in this test, key = CC[N+](CC)(CCNC(=O)C(=O)NCC[N+](CC)(CC)Cc1ccccc1Cl)Cc1ccccc1Cl
inactive

# outcome recorded in this test, key = CCCN(CCC)[C@@H]1CCc2cccc(O)c2C1
inactive

# outcome recorded in this test, key = CCCN1CCC[C@H](c2cccc(O)c2)C1
inactive

# outcome recorded in this test, key = CCS(=O)(=O)Nc1cccc(C(=C2CCCCC2)c2cnc[nH]2)c1
active

# outcome recorded in this test, key = CN1C(=O)C(=Cc2ccc(N3CCCCCC3)o2)C(=O)N(C)C1=S
active

# outcome recorded in this test, key = CCOP(=O)(OCC)c1nc(/C=C/c2ccccc2)oc1NCc1ccccc1
active

# outcome recorded in this test, key = CCCCN1C(=O)/C(=C\c2ccco2)C(=O)N(CCc2ccccc2)C1=O
active

# outcome recorded in this test, key = COc1ccccc1CC1C(=O)C2CCN1CC2 (stereo not given)
inactive

# outcome recorded in this test, key = CCCn1c(C)c(C(=O)c2cccc3ccccc23)c2ccccc21
active
